Test system: MCF7 (breast cancer)
Assay: ATP level assay (CellTiter-Glo), percent of control
Format: cell-based
Details: compound 100 uM + 2DG (about 10-20 mM), two hour incubation
Assay Metric: POC (percent of control) MCF7

// worked examples, POC (percent of control) MCF7 included
O=S(=O)(NCc1c[nH]c2ccccc12)c1ccc(Cl)cc1 [Compound 2]
25.1% of control
O=S(=O)(NCc1c[nH]c2ccccc12)c1ccc(C(F)(F)F)cc1 [Compound 24]
55.7% of control
CS(=O)(=O)NCc1c[nH]c2ccccc12 [Compound 26]
95.9% of control
O=S(=O)(NCc1c[nH]c2cccc(Br)c12)c1ccc(Cl)cc1 [Compound 27]
50.2% of control
Cc1cccc2[nH]cc(CNS(=O)(=O)c3ccccc3)c12 [Compound 7]
91.6% of control
O=S(=O)(NCc1c[nH]c2ccccc12)c1ccccc1 [Compound 3]
74.5% of control

Q) Item: Cc1ccc(S(=O)(=O)NCc2cscn2)cc1 [Compound 17] Test system: MCF7 (breast cancer) Read-out: POC (percent of control) MCF7 Value: ?
A) 114.6% of control

Q) Item: Cn1ncc2cc(CNS(=O)(=O)c3ccc(Cl)cc3)ccc21 [Compound 10] Test system: MCF7 (breast cancer) Read-out: POC (percent of control) MCF7 Value: ?
A) 121.2% of control

Q) Item: Cc1ccc(S(=O)(=O)NCc2ccc3c(cnn3C)c2)cc1 [Compound 9] Test system: MCF7 (breast cancer) Read-out: POC (percent of control) MCF7 Value: ?
A) 75.8% of control

Q) Item: O=[N+]([O-])c1cccc(S(=O)(=O)NCc2c[nH]c3ccccc23)c1 [Compound 25] Test system: MCF7 (breast cancer) Read-out: POC (percent of control) MCF7 Value: ?
A) 92.9% of control

Q) Item: Cn1cc(CNS(=O)(=O)c2ccc(Cl)cc2)c2ccccc21 [Compound 29] Test system: MCF7 (breast cancer) Read-out: POC (percent of control) MCF7 Value: ?
A) 90.9% of control

Q) Item: Cc1ccc(S(=O)(=O)NCc2ccc3ncccc3c2)cc1 [Compound 22] Test system: MCF7 (breast cancer) Read-out: POC (percent of control) MCF7 Value: ?
A) 107.1% of control

Provenance of the data: patent US20230266302A1
